- measurement notes: protein stability index of a GFP-peptide fusion (GPS, HEK-293T) (PSI 1-6); higher = more stable;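 also: 24-mer peptide tiles fused after GFP, lentivirally expressed, FACS-sorted into six equal bins by GFP/DsRed ratio, decoded by Illumina sequencing, PSI is the read-weighted mean bin number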
- run parameters: treatment: DMSO; c terminus: a fixed tail appended
quantity measured: protein stability index

See these solved cases before continuing.
GDDSDLSEGFESDSSHDSARASEG [SMG5] : 5.47
LPVSSPEPPPALPPAADAPVTQIG [TRIM55] : 5.23
GGKYLGRTKVVKPYSTVDNPVYYG [EFHC1] : 2.87
NFQFLPQVNGHPDPFDEIILFSLP [PTPN9] : 2.4

// batch mode: one protein stability index value per listed entry
1. VPSSGYGAVTASKHSNSPPLVTPP [SMTNL2]
2. GWVSGQLRYSVVEESEPGTLVGNV [PCDHGC5]
3. VLSLACAGGHLAVVELLLAHGADP [ANKRD17]
4. PFKQVAEMLSASRYPTISMVKPLL [ZBED1]
5. AGGSSGTTARERPCVRPGVSGSPV [FBF1]
6. SPLEEKHDQCKCENLIMFQNLANE [MATN2]
7. YKAKSRSPGSPVGEGTGSPPKWQI [ADD1]

Result:
1: 4.29; 2: 3.03; 3: 2.3; 4: 1.97; 5: 4.58; 6: 4.37; 7: 3.5

// batch mode: one protein stability index value per listed entry
1. WMENNGHVAGEQMLEDGPHNANRG [CCDC70]
2. GKGFRDRNVTGTPLTGDKDDEEVD [ADAMTSL2]

Result:
1: 5.23; 2: 5.59
